Ref: patent US9416128B2

Provide the reported inhibition at 3 µM of each item.
TARGET OF ASSAY: wild-type human cardiac sodium channel, hNaV 1.5 (Peak INa) (Homo sapiens)
Sequence (Q14524 whole entry): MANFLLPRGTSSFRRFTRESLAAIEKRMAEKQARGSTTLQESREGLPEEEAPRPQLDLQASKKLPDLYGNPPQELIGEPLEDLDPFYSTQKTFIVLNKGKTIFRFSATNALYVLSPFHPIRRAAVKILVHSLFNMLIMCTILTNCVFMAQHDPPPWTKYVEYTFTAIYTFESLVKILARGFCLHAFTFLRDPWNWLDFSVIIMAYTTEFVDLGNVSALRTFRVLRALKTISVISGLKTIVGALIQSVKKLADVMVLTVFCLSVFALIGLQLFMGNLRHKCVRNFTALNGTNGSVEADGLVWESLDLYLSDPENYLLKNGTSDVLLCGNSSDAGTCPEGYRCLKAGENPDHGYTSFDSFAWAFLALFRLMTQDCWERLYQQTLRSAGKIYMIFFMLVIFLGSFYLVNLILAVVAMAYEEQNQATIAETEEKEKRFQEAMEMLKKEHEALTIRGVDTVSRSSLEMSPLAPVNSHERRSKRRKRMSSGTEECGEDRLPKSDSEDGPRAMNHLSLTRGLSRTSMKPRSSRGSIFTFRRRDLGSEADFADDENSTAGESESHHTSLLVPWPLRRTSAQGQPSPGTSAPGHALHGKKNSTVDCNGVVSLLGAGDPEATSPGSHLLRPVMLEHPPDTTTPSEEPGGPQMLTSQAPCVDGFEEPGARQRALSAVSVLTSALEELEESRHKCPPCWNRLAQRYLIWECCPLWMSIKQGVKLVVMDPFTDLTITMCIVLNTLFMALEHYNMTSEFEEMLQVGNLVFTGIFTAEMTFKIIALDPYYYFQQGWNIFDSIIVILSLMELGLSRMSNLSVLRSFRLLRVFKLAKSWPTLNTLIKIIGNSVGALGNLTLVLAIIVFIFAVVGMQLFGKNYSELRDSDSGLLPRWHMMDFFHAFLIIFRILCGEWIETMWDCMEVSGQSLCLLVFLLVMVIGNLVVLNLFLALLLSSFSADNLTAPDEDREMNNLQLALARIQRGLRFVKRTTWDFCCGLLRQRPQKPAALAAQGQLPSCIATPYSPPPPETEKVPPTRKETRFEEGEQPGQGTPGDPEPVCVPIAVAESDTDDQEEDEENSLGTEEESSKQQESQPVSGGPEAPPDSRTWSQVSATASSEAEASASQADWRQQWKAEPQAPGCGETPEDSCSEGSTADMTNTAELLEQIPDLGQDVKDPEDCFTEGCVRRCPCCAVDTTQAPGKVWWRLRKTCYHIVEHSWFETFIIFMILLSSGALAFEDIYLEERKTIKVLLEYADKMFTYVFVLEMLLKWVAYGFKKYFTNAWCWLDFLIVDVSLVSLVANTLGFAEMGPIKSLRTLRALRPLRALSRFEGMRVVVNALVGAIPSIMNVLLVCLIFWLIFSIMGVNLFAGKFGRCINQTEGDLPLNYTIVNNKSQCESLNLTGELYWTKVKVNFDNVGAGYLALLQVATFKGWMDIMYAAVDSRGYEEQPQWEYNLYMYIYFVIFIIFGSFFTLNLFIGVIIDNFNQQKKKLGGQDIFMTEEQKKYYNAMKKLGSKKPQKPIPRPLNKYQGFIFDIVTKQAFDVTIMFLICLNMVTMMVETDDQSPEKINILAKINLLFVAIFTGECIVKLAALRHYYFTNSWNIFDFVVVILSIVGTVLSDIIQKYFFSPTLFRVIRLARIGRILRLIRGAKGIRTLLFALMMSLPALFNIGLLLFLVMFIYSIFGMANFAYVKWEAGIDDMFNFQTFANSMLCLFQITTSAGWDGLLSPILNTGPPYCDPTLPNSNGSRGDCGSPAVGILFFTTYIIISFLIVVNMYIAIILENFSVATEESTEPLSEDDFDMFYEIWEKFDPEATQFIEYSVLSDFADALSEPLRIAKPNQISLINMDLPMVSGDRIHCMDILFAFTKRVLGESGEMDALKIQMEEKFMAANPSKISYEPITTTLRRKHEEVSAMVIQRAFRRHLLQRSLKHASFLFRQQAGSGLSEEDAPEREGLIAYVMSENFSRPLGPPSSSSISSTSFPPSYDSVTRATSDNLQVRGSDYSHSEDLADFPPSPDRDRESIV
TEST NAME: Peak INa screening assay (tonic block and use-dependent block)
Assay type: cell-based
STATED CONDITIONS: % inhibition, use-dependent block of peak INa at 3 uM; 3 Hz, pulse 50; read-out: Nav1.5 Peak UDB 3 Hz 3 uM
Give bare numbers, in %.

Below, each entry is followed by its recorded inhibition at 3 µM result.
{"columns": ["CHEM SMILES", "inhibition at 3 µM / %"],
 "data": [
  ["O=C1Oc2ccc(-c3ccc(C(F)(F)F)cc3)cc2CN1Cc1ccncc1", 16.2],
  ["CCOc1cc(C(F)(F)F)ccc1-c1ccc2c(c1)CN(Cc1ncccn1)C(=O)O2", 9.7],
  ["O=C1Oc2ccc(-c3ccc(OC(F)(F)F)cc3)cc2CN1CCc1ncccn1", 5.3]
]}

// input: 4 compounds below; output: inhibition at 3 µM for each
1. CCCOc1cc(OC(F)(F)F)ccc1-c1ccc2c(c1)CN(Cc1ncccn1)C(=O)O2
2. O=C1Oc2ccc(-c3ccc(C(F)(F)F)cc3F)cc2CN1Cc1ncccn1
3. COc1cc(OC(F)(F)F)ccc1-c1ccc2c(c1)CN(Cc1ncccn1)C(=O)O2
4. O=C1Oc2ccc(-c3ccc(OC(F)(F)F)c(F)c3)cc2CN1Cc1ncccn1

Solution:
[6.9, 5.9, 9.6, 10.8]
